Assay: Pharmacokinetic Assay, single oral dose 5 mg/kg (Table 12)
Type: in vivo
Conditions: mouse; plasma concentration, C57 female mice, single oral dose 5 mg/kg, 0.5 h
test-readout: concentration at 0.5 h (ng/mL)

Some entries whose results are on file:
Cc1c(-c2nc3cc(CN4CCCC4)c(OC(F)F)cc3o2)cccc1-c1cccc(-c2nc3cc(CN4CCC[C@H]4C(=O)O)c(OC(F)F)cc3o2)c1C: 43.9
Cc1c(-c2nc3cc(CNCC(O)C(F)(F)F)c(OC(F)F)cc3o2)cccc1-c1cccc(-c2nc3cc(CN4CCC[C@H]4C(=O)O)c(OC(F)F)cc3o2)c1C (some centres unmarked): 68.6
Cc1c(-c2nc3cc(CN4CCC(C)(C)C4)c(OC(F)F)cc3o2)cccc1-c1cccc(-c2nc3cc(CN4CCC[C@H]4C(=O)O)c(OC(F)F)cc3o2)c1C: 143

[P] Cc1c(-c2nc3cc(CN4CCN(C)C(C)C4)c(OC(F)F)cc3o2)cccc1-c1cccc(-c2nc3cc(CN4CCC[C@H]4C(=O)O)c(OC(F)F)cc3o2)c1C (some centres unmarked)
[Q] Cc1c(-c2nc3cc(CN4CCOCC4)c(OC(F)F)cc3o2)cccc1-c1cccc(-c2nc3cc(CN4CCC[C@H]4C(=O)O)c(OC(F)F)cc3o2)c1C
Which entry has a larger number for concentration at 0.5 h, P or Q ? Return value: the label identifying the chosen record.
Q

---

Target: PD-1/PD-L1 (Homo sapiens (Human), UniProt Q9NZQ7)
Sequence (Q9NZQ7 19-238): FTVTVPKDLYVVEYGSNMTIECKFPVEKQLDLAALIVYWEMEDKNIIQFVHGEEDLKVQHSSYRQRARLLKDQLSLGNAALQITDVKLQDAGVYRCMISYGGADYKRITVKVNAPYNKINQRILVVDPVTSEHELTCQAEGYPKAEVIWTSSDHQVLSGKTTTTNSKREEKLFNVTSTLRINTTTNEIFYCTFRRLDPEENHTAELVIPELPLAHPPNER
Assay: PD-1/PD-L1 Binding Assay (Alphascreen)
Conditions: range symbols
pIC50: −log10 of the molar value.
test-readout: pIC50

Some entries whose results are on file:
CC1(C)CN(Cc2cc3nc(-c4cccc(-c5cccc(-c6nc7cc(CN8CCC[C@H]8C(=O)O)c(OC(F)F)cc7o6)c5C#N)c4C#N)oc3cc2OC(F)F)C1: 7.30 to 8.30
Cc1c(-c2nc3cc(CN4CCC[C@@H]4C(=O)O)c(OC(F)F)cc3o2)cccc1-c1cccc(-c2nc3cc(CN4CCC(C#N)C4)cc(C#N)c3o2)c1C (some centres unmarked): 8.30 to 10.00

Lab request: please report pIC50 under test system PD-1/PD-L1 (Homo sapiens (Human), UniProt Q9NZQ7) for `Cc1c(-c2nc3c(o2)CCN(CC(F)F)C3)cccc1-c1cccc(-c2nc3cc(CN4CCC[C@H]4C(=O)O)c(OC(F)F)cc3o2)c1C`
< 7.30

Lab request: please report pIC50 under test system PD-1/PD-L1 (Homo sapiens (Human), UniProt Q9NZQ7) for COc1nc(-c2cccc(-c3cccc(-c4nc5cc(CN6CCC[C@H]6C(=O)O)c(OC(F)F)cc5o4)c3C)c2C)ccc1CN1CCC(C(F)F)C1 (some centres unmarked)
7.30 to 8.30

Lab request: please report pIC50 under test system PD-1/PD-L1 (Homo sapiens (Human), UniProt Q9NZQ7) for `C#CC1(O)CN(Cc2cc(C#N)c3oc(-c4cccc(-c5cccc(-c6nc7cc(CN8CCC[C@H]8C(=O)O)c(OC(F)F)cc7o6)c5C)c4C)nc3c2)C1`
8.30 to 10.00

---

Test: Pharmacokinetic Assay, single oral dose 100 mg/kg (Table 11)
Type: in vivo
Conditions: mouse, C57 female mice, oral (intragastric), plasma
test-readout: Cmax (ng/mL)

Some entries whose results are on file:
Cc1c(-c2nc3cc(CN4CC[C@H]4CO)c(OC(F)F)cc3o2)cccc1-c1cccc(-c2nc3cc(CN4CCC[C@H]4C(=O)O)c(OC(F)F)cc3o2)c1C: 1000
Cc1c(-c2nc3cc(CN4CCCC4)c(OC(F)F)cc3o2)cccc1-c1cccc(-c2nc3cc(CN4CCC[C@H]4C(=O)O)c(OC(F)F)cc3o2)c1C: 2600
Cc1c(Nc2nccc3cc(CN4CCC[C@@]4(C)C(=O)O)cnc23)cccc1-c1cccc(-c2nc3cc(CN4CCC[C@H]4C(=O)O)c(OC(F)F)cc3o2)c1C: 965
Cc1c(-c2nc3c(o2)CCNC3)cccc1-c1cccc(-c2nc3cc(CN4CCC[C@H]4C(=O)O)c(OC(F)F)cc3o2)c1C: 1280
Cc1c(-c2nc3cc(CN4CC(C)(C)C4)c(OC(F)F)cc3o2)cccc1-c1cccc(-c2nc3cc(CN4CCC[C@H]4C(=O)O)c(OC(F)F)cc3o2)c1C: 4260

[1] Cc1c(-c2nc3cc(CN4CCC4)c(OC(F)F)cc3o2)cccc1-c1cccc(-c2nc3cc(CN4CCC[C@H]4C(=O)O)c(OC(F)F)cc3o2)c1C
[2] Cc1c(-c2nc3cc(CN4CCC[C@H]4C(=O)O)c(OC(F)F)cc3o2)cccc1-c1cccc(-c2nc3cc(CN4CCCC4)cc(C(F)(F)F)c3o2)c1C
Which entry has a larger number for Cmax, 1 or 2 ? Return value: the label identifying the chosen record.
2

---

Target: PD-1/PD-L1 (Homo sapiens (Human), UniProt Q9NZQ7)
Test: PD-1/PD-L1 Binding Assay (Alphascreen)
Details: numeric values
pIC50: −log10 of the molar value.
test-readout: pIC50

Some entries whose results are on file:
Cc1c(-c2ccc(CN3CCCC3)c(OC(F)(F)F)c2)cccc1-c1cccc(-c2nc3cc(CN4CCC[C@H]4C(=O)O)c(OC(F)F)cc3o2)c1C [Example 232]: 8.11
Cc1c(-c2cnc(CN3CCCC3)c(F)c2)cccc1-c1cccc(-c2nc3cc(CN4CCC[C@H]4C(=O)O)c(OC(F)F)cc3o2)c1C [Example 265]: 9.14
Cc1c(-c2nc3cc(CN4CCC[C@H]4C(=O)O)c(OC(F)F)cc3o2)cccc1-c1cccc(-c2nc3cc(CN4CC(C)(CO)C4)cc(C#N)c3o2)c1C [Example 129]: 8.77

[A] Cc1c(-c2nc3cc(CN4CCCC4)c(F)cc3[nH]2)cccc1-c1cccc(-c2nc3cc(CN4CCC[C@H]4C(=O)O)c(OC(F)F)cc3o2)c1C [Example 297]
[B] Cc1c(-c2ccc(C3CCCN3)cc2)cccc1-c1cccc(-c2nc3cc(CN4CCC[C@H]4C(=O)O)c(OC(F)F)cc3o2)c1C (stereo partly drawn) [Example 255]
[C] Cc1c(Nc2nccc3cc(CN4CC(O)C4)cnc23)cccc1-c1cccc(-c2nc3cc(CN4CCC[C@H]4C(=O)O)c(OC(F)F)cc3o2)c1C [Example 178]
Sort these molecules on pIC50 so the largest reading comes first. Present the labels in the sequence the task asks for.
B, C, A
(B: 8.64, C: 8.41, A: 7.59)

---

Test: Pharmacokinetic Assay, single oral dose 5 mg/kg (Table 12)
Type: in vivo
Settings: mouse; plasma concentration, C57 female mice, single oral dose 5 mg/kg, 0.5 h
test-readout: concentration at 0.5 h (ng/mL)

Cc1c(-c2nc3cc(CN4CCC[C@H]4C(=O)O)c(OC(F)F)cc3o2)cccc1-c1cccc(-c2nc3cc(CN4CCCC4)c(C(F)(F)F)cc3o2)c1C [Example 101]: 178

[A] Cc1c(-c2nc3c(o2)CCN(CCC(F)(F)F)C3)cccc1-c1cccc(-c2nc3cc(CN4CCC[C@H]4C(=O)O)c(OC(F)F)cc3o2)c1C [Example 198]
[B] COc1nc(-c2cccc(-c3cccc(-c4nc5cc(CN6CCC[C@H]6C(=O)O)c(OC(F)F)cc5o4)c3C)c2C)ccc1CNCC1CCC(=O)N1 (stereo partly drawn) [Example 276]
Hi! Which is lower in terms of concentration at 0.5 h, the first one A or the second one B ? Return value: the label identifying the chosen record.
B

---

Assay: Pharmacokinetic Assay, single oral dose 100 mg/kg (Table 11)
Format: in vivo
Details: mouse, C57 female mice, oral (intragastric), plasma
test-readout: Cmax (ng/mL)

Some entries whose results are on file:
Cc1c(-c2nc3cc(CN4CCC(C)C4)c(OC(F)F)cc3o2)cccc1-c1cccc(-c2nc3cc(CN4CCC[C@H]4C(=O)O)c(OC(F)F)cc3o2)c1C (some centres unmarked) [Example 61]: 8650
Cc1c(-c2ccc(CN3CCCC3)c(OC(F)F)c2)cccc1-c1cccc(-c2nc3cc(CN4CCC[C@H]4C(=O)O)c(OC(F)F)cc3o2)c1C [Example 244]: 5740

[P] Cc1c(-c2nc3c(o2)CCN(C)C3)cccc1-c1cccc(-c2nc3cc(CN4CCC[C@H]4C(=O)O)c(OC(F)F)cc3o2)c1C [Example 314]
[Q] CNCc1cc2nc(-c3cccc(-c4cccc(-c5nc6cc(CN7CCC[C@H]7C(=O)O)c(OC(F)F)cc6o5)c4C)c3C)oc2cc1OC(F)F [Example 15]
[R] Cc1c(-c2nc3cc(CN4CCC[C@H]4C(=O)O)c(OC(F)F)cc3o2)cccc1-c1cccc(-c2nc3cc(CN4CCCC4(C)C)c(OC(F)F)cc3o2)c1C [Example 62]
Your job: order these 3 records by Cmax, ascending. Present the labels in the sequence the task asks for.
Q, R, P
(Q: 931 ng/mL, R: 4280 ng/mL, P: 6350 ng/mL)
